- test_protocol: Drug concentration in mouse kidney at 15 mg/kg, iv measured at 7 hrs
- Type: ADME, organism-based
- setup_conditions: read-out: Ct
measured_metric: concentration at 7 h

- chem_smiles: "N[C@@H]1[C@H]2CN(c3cnc(C(=O)Nc4cc(F)cc5cccnc45)cn3)C[C@@H]12"
  value_observed: "2690 ng/g"

====

- Test system: MIA PaCa-2
- test_protocol: Cytotoxicity against human MIA PaCa-2 cells by MTT assay
- Assay type: functional, cell-based
pIC50: −log10 of the molar value.
Criterion: pIC50 meeting or surpassing 6. Met: Met. Not met: Not met.

- molecule: "O=C(Nc1cc(F)cc2cccnc12)c1cnc(N2CCC(F)(F)CC2)cn1"
  label_class: "Not met"
- molecule: "O=C(Nc1cc(F)cc2cccnc12)c1cnc(N2CCn3c(nnc3C(F)(F)F)C2)cn1"
  label_class: "Not met"
- molecule: "O=C(Nc1cc(F)cc2cccnc12)c1cnc(N2CCC(F)C2)cn1 (stereo unspecified)"
  label_class: "Not met"
- molecule: "O=C(Nc1cc(F)cc2cccnc12)c1cnc(N2CCC(O)(C(F)(F)F)CC2)cn1"
  label_class: "Not met"
- molecule: "O=C(Nc1cc(F)cc2cccnc12)c1cnc(N2C[C@@H](O)CC2=O)cn1"
  label_class: "Not met"
- molecule: "O=C(Nc1cc(F)cc2cccnc12)c1cnc(N2CCN3CCCC3C2)cn1 (stereo unspecified)"
  label_class: "Not met"
- molecule: "Cc1cc(NCc2cnc(N3CCNCC3)cn2)c2ncccc2c1"
  label_class: "Not met"
- molecule: "O=C(Nc1cc(F)cc2cccnc12)c1cnc(N2CCNCC2)cn1"
  label_class: "Met"
- molecule: "C[C@@H]1CN(c2cnc(C(=O)Nc3cc(F)cc4cccnc34)cn2)CCN1"
  label_class: "Met"
- molecule: "CN1CNC(=O)C12CCN(c1cnc(C(=O)Nc3cc(F)cc4cccnc34)cn1)CC2"
  label_class: "Not met"
- molecule: "Cc1cc(NC(=O)CNCCN2CCN(C)CC2)c2ncccc2c1"
  label_class: "Not met"
- molecule: "Cc1cc(NC(=O)c2cnc(N3C[C@@H]4[C@@H](N)[C@@H]4C3)cn2)c2ncccc2c1"
  label_class: "Met"
- molecule: "CCN(CC)C1CCN(c2cnc(C(=O)Nc3cc(F)cc4cccnc34)cn2)CC1"
  label_class: "Met"
- molecule: "NC1CCCN(c2cnc(C(=O)Nc3cc(F)cc4cccnc34)cn2)C1 (stereo unspecified)"
  label_class: "Not met"
- molecule: "N[C@@H]1CN(c2cnc(C(=O)Nc3cc(F)cc4cccnc34)cn2)CC12COC2"
  label_class: "Not met"
- molecule: "C[C@@H]1CN(c2cnc(C(=O)Nc3cc(F)cc4cccnc34)cn2)C[C@H](C)N1"
  label_class: "Met"
- molecule: "NC1CC2(C1)CN(c1cnc(C(=O)Nc3cc(F)cc4cccnc34)cn1)C2"
  label_class: "Not met"
- molecule: "CCN(CC)C(=S)SSC(=S)N(CC)CC"
  label_class: "Met"

====

- test_protocol: Drug concentration in mouse plasma at 15 mg/kg, iv measured at 24 hrs
- Type: ADME, organism-based

- chem_smiles: "N[C@@H]1[C@H]2CN(c3cnc(C(=O)Nc4cc(F)cc5cccnc45)cn3)C[C@@H]12"
  concentration at 24 h / ng/mL: 7

====

- Test system: MIA PaCa-2
- test_protocol: Cytotoxicity against human MIA PaCa-2 cells by MTT assay
- Type: functional, cell-based
Listed compounds paired with reported IC50

- compound: "O=C(Nc1cc(F)cc2cccnc12)c1cnc(N2CCOCC2)cn1"
  IC50: "1 µM"
- compound: "Cc1cc(NC(=O)c2cnc(N3CCNCC3)cn2)c2ncccc2c1"
  IC50: "0.9 µM"
- compound: "CN1CCN(c2cnc(C(=O)Nc3cccc4ccccc34)cn2)CC1"
  IC50: "> 30 µM"
- compound: "Cc1cc(NC(=O)c2ccc(N3CCN(C)CC3)cc2)c2ncccc2c1"
  IC50: "25.8 µM"
- compound: "NC1C2CCC1CN(c1cnc(C(=O)Nc3cc(F)cc4cccnc34)cn1)C2 (stereo unspecified)"
  IC50: "0.8 µM"
- compound: "O=C(Nc1cccc2ccccc12)c1cnc(N2CCNCC2)cn1"
  IC50: "> 30 µM"

====

- test_protocol: Half life in CD-1 mouse at 15 mg/kg, iv measured up to 24 hrs by LC-MS/MS analysis
- Type: ADME, organism-based
- setup_conditions: in vivo
Documented half-life across a set of compounds

- chem_smiles: "C[C@@H]1OCC2(CCN(c3cnc(C(=O)Nc4cc(F)cc5cccnc45)cn3)CC2)[C@@H]1N"
  half-life: "2.8 h"
- chem_smiles: "N[C@@H]1[C@H]2CN(c3cnc(C(=O)Nc4cc(F)cc5cccnc45)cn3)C[C@@H]12"
  half-life: "3 h"

====

- Test system: MIA PaCa-2
- test_protocol: Cytotoxicity against human MIA PaCa-2 cells by MTT assay
- Format: functional, cell-based
pIC50: −log10 of the molar value.
measured_metric: pIC50

- chem_smiles: "CN1CCN(c2cnc(C(=O)Nc3cc(F)cc4cccnc34)cn2)CC1"
  measured_metric: "pIC50"
  value_observed: 6.15
- chem_smiles: "N[C@@H]1CCCC12CCN(c1cnc(C(=O)Nc3cc(F)cc4cccnc34)cn1)CC2"
  measured_metric: "pIC50"
  value_observed: 5.82
- chem_smiles: "Cc1cc(NC(=O)c2cnc(N3CCN(S(C)(=O)=O)CC3)cn2)c2ncccc2c1"
  measured_metric: "pIC50"
  value_observed: 6.00
- chem_smiles: "O=C(Nc1cc(F)cc2cccnc12)c1cnc(N2CCNC3(CC3)C2)cn1"
  measured_metric: "pIC50"
  value_observed: 6.10

====

- test_protocol: Metabolic stability in mouse liver microsome assessed as half life measured up to 60 mins by LC-MS/MS analysis
- Type: ADME
- setup_conditions: liver microsomes
measured_metric: half-life

- chem_smiles: "N[C@H]1CN(c2cnc(C(=O)Nc3cc(F)cc4cccnc34)cn2)C[C@H]1F"
  value_observed: "> 1 h"
- chem_smiles: "C[C@@H]1OCC2(CCN(c3cnc(C(=O)Nc4cc(F)cc5cccnc45)cn3)CC2)[C@@H]1N"
  value_observed: "> 1 h"
- chem_smiles: "Cc1cc(NC(=O)c2cnc(N3C[C@@H]4[C@@H](N)[C@@H]4C3)cn2)c2ncccc2c1"
  value_observed: "> 1 h"

====

List of pIC50 values.
- Tested on: MIA PaCa-2
- test_protocol: Cytotoxicity against human MIA PaCa-2 cells by MTT assay
- Type: functional, cell-based
pIC50: −log10 of the molar value.
measured_metric: pIC50

- compound: "Cc1cc(NC(=O)c2cnc(N3CCC4(CC3)CO[C@@H](C)[C@H]4N)cn2)c2ncccc2c1"
  measured_metric: "pIC50"
  value_observed: 6.00
- compound: "N[C@@H]1CCN(c2cnc(C(=O)Nc3cc(F)cc4cccnc34)cn2)C[C@@H]1F"
  measured_metric: "pIC50"
  value_observed: 5.96
- compound: "O=C(Nc1cc(F)cc2cccnc12)c1cnc(N2CCNC(C(F)(F)F)C2)cn1 (stereo not drawn)"
  measured_metric: "pIC50"
  value_observed: 6.10
